Where do these numbers come from? They come from PubChem BioAssay (NCI).

Assay: NCI Yeast Anticancer Drug Screen. Data for the mec2-1 strain (AID 157)
Settings: S. cerevisiae mec2-1 strain, at 50.0 µM (retest, dose inferred, filed as 5.0), stronger effect = higher value
The panel holds about 79,000 compounds, 15% with a hit somewhere; the sample as a whole holds those more often. Calls of active or inactive are those of the source. Rule as the data show it: active = growth inhibition above about 70%; inactive = the rest.
Recorded growth inhibition values for a group of compounds are listed next.

{"compound": "C/C=C/C1=C(Cl)C(=O)[C@@H](Cl)[C@@]1(O)C(=O)OC", "growth inhibition": "99% (active)"}
{"compound": "COc1cc2c(cc1OC)-c1nc(Nc3ccccc3)sc1CC2", "growth inhibition": "94% (active)"}
{"compound": "O=c1cc(-c2cccc(OCc3ccccc3)c2)[nH]c2cc3c(cc12)OCO3", "growth inhibition": "12% (inactive)"}
{"compound": "CNC(=O)NN(C)C=O", "growth inhibition": "2% (inactive)"}
{"compound": "C=C(CC)C[C@@H]1C[C@]2(C(=O)OC)c3[nH]c4ccccc4c3CCN2C1=O", "growth inhibition": "85% (active)"}
{"compound": "CN(C)c1ccc(/C=C/C(=O)c2ccc([N+](=O)[O-])cc2)cc1", "growth inhibition": "42% (inactive)"}
{"compound": "CC1(C)CC(=O)C(C=NC(=S)c2ccccc2)=C(O)C1", "growth inhibition": "13% (inactive)"}
{"compound": "NNc1ccccc1F", "growth inhibition": "97% (active)"}
{"compound": "C(=C/c1ccccc1)/C=N/Nc1ccccc1", "growth inhibition": "-50% (inactive)"}
{"compound": "COc1ccc(-c2c3ccccc3[n+](-c3ccccc3)c3ccccc23)cc1", "growth inhibition": "100% (active)"}
{"compound": "Nc1cc(F)c(F)cc1Sc1cc(F)c(F)cc1N", "growth inhibition": "99% (active)"}
{"compound": "COc1ccc2c(c1)[n+]([O-])c(S(=O)(=O)c1ccc(C)cc1)c(N)[n+]2[O-]", "growth inhibition": "80% (active)"}
{"compound": "Cc1ccc(S(=O)/C=C/S(=O)(=O)c2ccc(C)cc2)cc1 (stereo unspecified)", "growth inhibition": "100% (active)"}
{"compound": "CCC(C)(C)c1ccc(OCCO)c([N+](=O)[O-])c1", "growth inhibition": "71% (active)"}
{"compound": "CCC(C)SC1SCC2C(=O)N(C)C3(CC3C)C(=O)OCC(NC(=O)c3nc4ccccc4cc3O)C(=O)NC(C)C(=O)N(C)C1C(=O)N(C)C1(CC1C)C(=O)OCC(NC(=O)c1nc3ccccc3cc1O)C(=O)NC(C)C(=O)N2C (stereo unspecified)", "growth inhibition": "92% (active)"}
{"compound": "CCCCCC1OC1CC1OC1CCCCCCCC(=O)OC (stereo unspecified)", "growth inhibition": "-2% (inactive)"}

----------
Recorded growth inhibition values for a group of compounds are listed next.
Assay: NCI Yeast Anticancer Drug Screen. Data for the mec2-1 strain (AID 157)
Details: S. cerevisiae mec2-1 strain, at 5.0 µM (retest, dose inferred, filed as 0.5), stronger effect = higher value
The panel holds about 79,000 compounds, 15% with a hit somewhere; the sample as a whole holds those more often.
reported_endpoint: growth inhibition (%)

{"compound": "CCC12C=CCN3CC[C@@]4(c5cc([C@@]6(C(=O)OC)C[C@@H]7CN(CCc8c6[nH]c6ccccc86)C[C@](O)(CC)C7)c(OC)cc5N(C)[C@H]4[C@@](O)(C(=O)OC)[C@@H]1OC(=O)CCCCCCCCCCCN1C(=O)C=CC1=O)[C@H]32 (stereo partly drawn)", "readout_units": "%", "value": 42}
{"compound": "COc1cc2c(cc1O)CCCCC2", "readout_units": "%", "value": 3}
{"compound": "O=C(O)CCC/C(=N\\Nc1ccccc1)C(=O)O", "readout_units": "%", "value": 2}
{"compound": "O=C(CN(Cc1ccccc1)Cc1ccccc1)N1CCc2c([nH]c3ccccc23)C1c1cccnc1 (stereo not drawn)", "readout_units": "%", "value": 27}
{"compound": "CSc1ncc2c(n1)-c1ccccc1OC2NC1CC1 (stereo not drawn)", "readout_units": "%", "value": 18}
{"compound": "O=C(N/C(=C\\c1ccc(Cl)cc1)c1nc2ccccc2[nH]1)c1ccccc1", "readout_units": "%", "value": -1}
{"compound": "CCn1c2ccccc2c(=O)c2c(OC)ccc(OC)c21", "readout_units": "%", "value": 4}
{"compound": "CN(C)C(=O)N(C)/N=C/c1ccc([N+](=O)[O-])o1", "readout_units": "%", "value": 1}

----------
Experiment: NCI Yeast Anticancer Drug Screen. Data for the sgs1 mgt1 strain (AID 161);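 also: 0% = growth of cultures given vehicle only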
Conditions: S. cerevisiae sgs1 mgt1 strain, at 50.0 µM, stronger effect = higher value
Description: Growth inhibition of yeast strains with defined genetic alterations is measured as a screen for potential anti-cancer activity. Selected strains with alterations in DNA damage repair or cell cycle control were exposed to compounds and growth inhibition was measured relative to vehicle treated controls. The strain used in this assay is sgs1 mgt1
About 79,000 compounds went through this panel and 15% of them were active in at least one assay; those are over-represented in the sample as a whole.
criterion met means recorded growth inhibition is 70% or above; criterion not met means it is below 70%.

{"compound": "O=C(OCc1ccccc1)C(O)c1ccccc1 (stereo not drawn)", "label_value": "criterion not met"}
{"compound": "CN(C)CCNc1ccc([N+](=O)[O-])c2nc3ccccc3c(N)c12", "label_value": "criterion not met"}
{"compound": "OC(CCN1CCOCC1)C1c2ccccc2Cc2ccccc21 (stereo not drawn)", "label_value": "criterion not met"}
{"compound": "CN(Cc1ccccc1)CC(O)c1ccc(/C=C/c2ccc(Cl)cc2)cc1 (stereo not drawn)", "label_value": "criterion met"}
{"compound": "Cc1c(Cl)ccc2c(C(O)CNCc3ccccc3)cc(-c3ccc(Cl)cc3)nc12 (stereo not drawn)", "label_value": "criterion met"}
{"compound": "COc1ccccc1C1c2cc3c(cc2OC2(OC)COC(=O)C12)OCO3 (stereo not drawn)", "label_value": "criterion not met"}
{"compound": "CCCCCCCCCCCCNC(=O)C[n+]1cccc(C(N)=O)c1", "label_value": "criterion not met"}
{"compound": "Nc1nc(-c2cc3cc(Cl)ccc3o2)cs1", "label_value": "criterion not met"}
{"compound": "N#CC(c1c(Cl)cccc1N1CCCCC1)N1CCCCC1 (stereo not drawn)", "label_value": "criterion met"}
{"compound": "COc1ccc2c(c1)CCc1c(-c3noc4c3CCc3cc(OC)ccc3-4)noc1-2", "label_value": "criterion not met"}
{"compound": "Nc1ccccc1/C=C1/Sc2cc[nH]c2C1=O", "label_value": "criterion not met"}
{"compound": "N#Cc1cc2c(cc1Cl)Sc1nccn1S2(=O)=O", "label_value": "criterion not met"}
{"compound": "CCOC(=O)C1SC(=S)N(C)C1=O (stereo not drawn)", "label_value": "criterion met"}
{"compound": "O=[N+]([O-])c1cnc(F)c(Br)c1", "label_value": "criterion met"}
{"compound": "CC(C)(C)OC(=O)N(CCCCNC(=O)OCc1ccccc1)CCCNC(=O)OCc1ccccc1", "label_value": "criterion not met"}
{"compound": "COc1ccc(C)cc1NC(=O)ON=C1CCCCC1", "label_value": "criterion met"}
{"compound": "C/C=C/C1=C(Cl)C(=O)[C@@H](Cl)[C@@]1(O)C(=O)OC", "label_value": "criterion met"}
{"compound": "COc1ccc(C2=C(Cl)C(=O)N(c3ccc(OC)cc3)C(=O)C2(Cl)Cl)cc1", "label_value": "criterion not met"}
{"compound": "c1ccc(NN=C(c2ccccc2)c2ccccc2)cc1", "label_value": "criterion met"}
{"compound": "O=S(=O)(Nc1ccccc1)c1ccccc1C=C(c1ccccc1)c1ccccc1", "label_value": "criterion met"}
{"compound": "CNC(=S)/N=c1/sc([N+](=O)[O-])c(C)n1C", "label_value": "criterion not met"}
{"compound": "CCn1c(O)c(C=Nc2ccccc2)s/c1=N/Nc1nc(-c2ccc(O)c(O)c2)cs1", "label_value": "criterion met"}
{"compound": "Nc1ccc2c(c1)S(=O)(=O)c1cc(O)ccc1O2", "label_value": "criterion not met"}
{"compound": "N#CC(CC(=O)O)C(c1cccc2ccccc12)c1cccc2ccccc12 (stereo not drawn)", "label_value": "criterion met"}
{"compound": "CCC(=O)C(=O)CC1CC(c2ccco2)=Nc2ccccc2S1 (stereo not drawn)", "label_value": "criterion not met"}
{"compound": "C1CCC(CC[N+]23CC[N+](CCC4CCCC4)(CC2)C3)C1", "label_value": "criterion not met"}
{"compound": "CC(C)=CCC/C(C)=C/CC/C(C)=C/CC/C=C(\\C)CC/C=C(\\C)CCC[N+](C)(C)[O-]", "label_value": "criterion met"}
{"compound": "O=C1C(Cl)=C(Nc2ccc(S(=O)(=O)O)cc2)C(=O)c2ccccc21", "label_value": "criterion met"}
{"compound": "COc1nc(NC2OCC(O)C(O)C2O)c(Cl)c(=O)n1C (stereo not drawn)", "label_value": "criterion not met"}
{"compound": "CC(c1ccccc1C(=O)O)c1cccc2ccccc12 (stereo not drawn)", "label_value": "criterion met"}
{"compound": "CC(=O)Oc1ccc(/C=C/c2ccncc2)cc1", "label_value": "criterion not met"}
{"compound": "Oc1ccc[nH]c1=S", "label_value": "criterion met"}
